Could you please report measured Kd for the items listed next?
# Target: T1, Cynomolgus monkey BCMA (cynomolgus monkey)
# T1 construct: Soluble analyte in SPR; also called cyBCMA; Cyno BCMA
# Protocol Details: SPR, IgG immobilised, cyno BCMA analyte

Entry under test: C01_Rd4_6nM_C26 (antibody, V domains shown, IgG) VH: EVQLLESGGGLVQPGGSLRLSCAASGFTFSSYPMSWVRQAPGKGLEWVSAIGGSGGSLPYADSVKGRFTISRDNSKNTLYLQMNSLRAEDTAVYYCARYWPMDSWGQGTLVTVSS VL: EIVLTQSPGTLSLSPGERATLSCRASQSVSALYLAWYQQKPGQAPRLLIYDASSRAPGIPDRFSGSGSGTDFTLTISRLEPEDFAVYYCQQYSAWPLTFGQGTKVEIK . Its Kd was 0.419 nM

Entry under test: A02_Rd4_0.6nM_C10 (antibody, V domains shown, IgG) VH: EVQLLESGGGLVQPGGSLRLSCAASGFTFSSYAMNWVRQAPGKGLEWVSAISGWGGSLPYADSVKGRFTISRDNSKNTLYLQMNSLRAEDTAVYYCARYWPMDSWGQGTLVTVSS VL: EIVLTQSPGTLSLSPGERATLSCRASQSVSAQYLAWYQQKPGQAPRLLMYDASIRATGIPDRFSGSGSGTDFTLTISRLEPEDFAVYYCQQYQRWPLTFGQGTKVEIK . Its Kd was 1.84 nM

Entry under test: COMBO_Rd4_0.6nM_C17 (antibody, V domains shown, IgG) VH: EVQLLESGGGLVQPGGSLRLSCAASGFTFSSYPMSWVRQAPGKGLEWVSAIGGSGGSLPYADSVKGRFTISRDNSKNTLYLQMNSLRAEDTAVYYCARYWPMDIWGQGTLVTVSS VL: EIVLTQSPGTLSLSPGERATLSCRASQGISSTYLAWYQQKPGQAPRLLMYDASIRATGIPDRFSGSGSGTDFTLTISRLEPEDFAVYYCQQYAYWPLTFGQGTKVEIK . Its Kd was 0.33 nM

Entry under test: A02_Rd4_6nM_C25 (antibody, V domains shown, IgG) VH: EVQLLESGGGLVQPGGSLRLSCAASGFTFSSYAMNWVRQAPGKGLEWVSAISDSGGSRWYADSVKGRFTISRDNSKNTLYLQMNSLRAEDTAVYYCARYWPMTPWGQGTLVTVSS VL: EIVLTQSPGTLSLSPGERATLSCRASQSVSSSYLAWYQQKPGQAPRLLMYDASIRATGIPDRFSGSGSGTDFTLTISRLEPEDFAVYYCQQYLDWPLTFGQGTKVEIK . Its Kd was 0.22 nM

Entry under test: COMBO_Rd4_6nM_C07 (antibody, V domains shown, IgG) VH: EVQLLESGGGLVQPGGSLRLSCAASGFTFSSYPMSWVRQAPGKGLEWVSAIGGSGGSLPYADSVKGRFTISRDNSKNTLYLQMNSLRAEDTAVYYCARYWPMADWGQGTLVTVSS VL: EIVLTQSPGTLSLSPGERATLSCRASQPISSSYLAWYQQKPGQAPRLLMYDASIRATGIPDRFSGSGSGTDFTLTISRLEPEDFAVYYCQQYQGWPLTFGQGTKVEIK . Its Kd was 0.237 nM

Entry under test: A02_Rd4_6nM_C03 (antibody, V domains shown, IgG) VH: EVQLLESGGGLVQPGGSLRLSCAASGFTFSSYAMNWVRQAPGKGLEWVSAISDSGGSTYYADSVKGRFTISRDNSKNTLYLQMNSLRAEDTAVYYCARYWPMDIWGQGTLVTVSS VL: EIVLTQSPGTLSLSPGERATLSCRASQSVSNLYLAWYQQKPGQAPRLLMYDASIRATGIPDRFSGSGSGTDFTLTISRLEPEDFAVYYCQQYQGWPLTFGQGTKVEIK . Its Kd was 0.158 nM

Entry under test: A02_Rd4_6nM_C04 (antibody, V domains shown, IgG) VH: EVQLLESGGGLVQPGGSLRLSCAASGFTFSSYAMNWVRQAPGKGLEWVSAIMSSGGPLYYADSVKGRFTISRDNSKNTLYLQMNSLRAEDTAVYYCARYWPMALWGQGTLVTVSS VL: EIVLTQSPGTLSLSPGERATLSCRASQSVSALYLAWYQQKPGQAPRLLMYDASIRATGIPDRFSGSGSGTDFTLTISRLEPEDFAVYYCQQYQVWPLTFGQGTKVEIK . Its Kd was 0.381 nM

Entry under test: A02_Rd4_6nM_C26 (antibody, V domains shown, IgG) VH: EVQLLESGGGLVQPGGSLRLSCAASGFTFSSYAMNWVRQAPGKGLEWVSAISDSGGSTYYADSVKGRFTISRDNSKNTLYLQMNSLRAEDTAVYYCARYWPMSLWGQGTLVTVSS VL: EIVLTQSPGTLSLSPGERATLSCRASQSVSSLYLAWYQQKPGQAPRLLMYDASIRATGIPDRFSGSGSGTDFTLTISRLEPEDFAVYYCQQYQVWPLTFGQGTKVEIK . Its Kd was 0.203 nM

Entry under test: COMBO_Rd4_0.6nM_C22 (antibody, V domains shown, IgG; also called COM22) VH: EVQLLESGGGLVQPGGSLRLSCAASGFTFSSYAMNWVRQAPGKGLEWVSAISDSGGSRWYADSVKGRFTISRDNSKNTLYLQMNSLRAEDTAVYYCTRYWPMDIWGQGTLVTVSS VL: EIVLTQSPGTLSLSPGERATLSCRASVRVSSTYLAWYQQKPGQAPRLLMYDASIRATGIPDRFSGSGSGTDFTLTISRLEPEDFAVYYCQQYMKWPLTFGQGTKVEIK . Its Kd was 0.05 nM

Entry under test: P5A2_VHVL (antibody, V domains shown, IgG) VH: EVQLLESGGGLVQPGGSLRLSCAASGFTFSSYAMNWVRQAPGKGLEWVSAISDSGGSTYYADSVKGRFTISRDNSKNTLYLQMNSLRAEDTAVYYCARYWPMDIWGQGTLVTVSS VL: EIVLTQSPGTLSLSPGERATLSCRASQSVSSSYLAWYQQKPGQAPRLLMYDASIRATGIPDRFSGSGSGTDFTLTISRLEPEDFAVYYCQQYGSWPLTFGQGTKVEIK . Its Kd was 10.2 nM

Value source: patent US20160297884A1
